# ASSAYED_SYSTEM: Melanocortin receptor 4 (Homo sapiens, UniProt P32245)
# Sequence (P32245 whole entry): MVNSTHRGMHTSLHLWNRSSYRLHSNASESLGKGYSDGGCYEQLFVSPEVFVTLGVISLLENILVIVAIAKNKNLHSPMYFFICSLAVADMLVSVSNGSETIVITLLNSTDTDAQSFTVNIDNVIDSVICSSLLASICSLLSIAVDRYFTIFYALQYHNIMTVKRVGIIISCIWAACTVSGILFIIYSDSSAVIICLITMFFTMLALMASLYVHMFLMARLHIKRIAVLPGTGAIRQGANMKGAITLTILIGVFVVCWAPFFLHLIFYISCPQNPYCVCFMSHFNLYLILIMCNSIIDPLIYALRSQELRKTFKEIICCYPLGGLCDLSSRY
# TEST_PROTOCOL: Agonist activity at human MC4R expressed in HEK293 cells assessed as increase in intracellular cAMP level at 10 uM after 3 mins by luminescence counter relative to Ac-Nle-c[Asp-His-D-Phe-Arg-Trp-Lys]-NH2
# Format: functional, cell-based
Positions of bridges follow the written chain, without caps; N, C: chain ends. Non-standard residues stand in square brackets, D forms with d. Residues, ends and D or L forms follow the SMILES beside them. 2Nal = N[C@@H](Cc1ccc2ccccc2c1)C(=O)O
MEASURED_QUANTITY: Activity (%)

>>> assay_value("CC(=O)N[C@H]1CC(=O)NCCCC[C@@H](C(N)=O)NC(=O)[C@@H](CCC(N)=O)NC(=O)[C@H](Cc2ccccc2)NC(=O)[C@H](Cc2c[nH]c3ccccc23)NC(=O)[C@H](CCCNC(=N)N)NC1=O (Ac-DRWF[dQ]K-NH2; lactam 1-6)")
0
>>> assay_value("C[C@@H]1NC(=O)[C@@H](CC(N)=O)NC(=O)[C@H](Cc2ccccc2)NC(=O)[C@H](Cc2c[nH]c3ccccc23)NC(=O)[C@H](CCCNC(=N)N)NC(=O)CC[C@@H](C(N)=O)NC(=O)[C@H](Cc2ccccc2)NC1=O (RWF[dN]AFE-NH2; lactam N-7)")
0
>>> assay_value("CC(=O)N[C@H]1CC(=O)NCCCC[C@@H](C(N)=O)NC(=O)[C@@H](CCCNC(=N)N)NC(=O)[C@H](Cc2ccccc2)NC(=O)[C@H](Cc2c[nH]c3ccccc23)NC(=O)[C@H](CCCNC(=N)N)NC1=O (Ac-DRWF[dR]K-NH2; lactam 1-6)")
0
>>> assay_value("C[C@@H]1NC(=O)[C@H](CC(N)=O)NC(=O)[C@H](Cc2ccccc2)NC(=O)[C@H](Cc2c[nH]c3ccccc23)NC(=O)[C@H](CCCNC(=N)N)NC(=O)CC[C@@H](C(N)=O)NC(=O)[C@H](Cc2ccccc2)NC1=O (RWFNAFE-NH2; lactam N-7)")
0
>>> assay_value("CC(=O)N[C@H]1CC(=O)NCCCC[C@@H](C(N)=O)NC(=O)[C@@H](CC(N)=O)NC(=O)[C@H](Cc2ccc3ccccc3c2)NC(=O)[C@H](Cc2c[nH]c3ccccc23)NC(=O)[C@H](CCCNC(=N)N)NC1=O (Ac-DRW[2Nal][dN]K-NH2; lactam 1-6)")
0
>>> assay_value("CC(=O)N[C@H]1CC(=O)NCCCC[C@@H](C(N)=O)NC(=O)[C@@H](CC(N)=O)NC(=O)[C@H](Cc2ccccc2)NC(=O)[C@H](Cc2c[nH]c3ccccc23)NC(=O)[C@H](CCCNC(=N)N)NC1=O (Ac-DRWF[dN]K-NH2; lactam 1-6)")
0
>>> assay_value("CC(=O)N[C@H]1CC(=O)NCCCC[C@@H](C(N)=O)NC(=O)[C@@H](CCC(N)=O)NC(=O)[C@H](Cc2ccc3ccccc3c2)NC(=O)[C@H](Cc2c[nH]c3ccccc23)NC(=O)[C@H](CCCNC(=N)N)NC1=O (Ac-DRW[2Nal][dQ]K-NH2; lactam 1-6)")
0
>>> assay_value("C[C@@H]1NC(=O)[C@@H](CC(N)=O)NC(=O)[C@H](Cc2ccc3ccccc3c2)NC(=O)[C@H](Cc2c[nH]c3ccccc23)NC(=O)[C@H](CCCNC(=N)N)NC(=O)CC[C@@H](C(N)=O)NC(=O)[C@H](Cc2ccccc2)NC1=O (RW[2Nal][dN]AFE-NH2; lactam N-7)")
0

Reference source for all entries: ChEMBL document CHEMBL1773033
